For each entry below, report its bioavailability value.
- TEST_NAME: Oral bioavailability in PXB mouse at 10 mg/kg measured for 24 hrs
- Type: ADME, organism-based
- CONDITION: in vivo
Give bare numbers, in %.

CC(C)(C)[C@H](NC(=O)C(F)(F)F)C(=O)N1C[C@H]2[C@@H]([C@H]1C(=O)N[C@@H](C[C@@H]1CCNC1=O)C(=O)c1nc3c(F)cccc3s1)C2(C)C : 48

Here is another compound to look at.
Request: Entry under review: CC(C)(C)[C@H](NC(=O)C(F)(F)F)C(=O)N1C[C@H]2[C@@H]([C@H]1C(=S)N[C@@H](C[C@@H]1CCNC1=O)C(=O)c1nc3c(F)cccc3s1)C2(C)C . Reported bioavailability?
Response: 72
